I'd appreciate it if you could supply pEC50 values for the items below.
Assay: Induction of mitochondrial uncoupling activity in rat L6 cells assessed as increase in oxygen consumption rate measured after 90 mins by agilent Seahorse XF analyzer
Assay type: functional, cell-based
Numbers only.

Would you mind giving pEC50 for every compound in the list below?
1. Oc1nc2nonc2cc1Nc1ccc(C(F)(F)F)c(C(F)(F)F)c1
2. Oc1nc2nonc2cc1Nc1ccc(F)cc1OC(F)(F)F
3. Oc1nc2nonc2cc1Nc1cccc(C(F)(F)F)c1C(F)(F)F

1. 6
2. 5.7
3. 5.7

* * *

Assay: Apparent permeability across apical to basolateral side in human Caco-2 cells
Format: ADME, cell-based
MEASURED_ATTRIBUTE: Papp A→B (×10⁻⁶ cm/s)
Answers are plain numbers, in ×10⁻⁶ cm/s.

Dear colleague, I am looking for the recorded Papp A→B of the following compound: Oc1nc2nonc2cc1Nc1c(F)c(F)c(F)c(F)c1F 12.4

* * *

Experiment: Solubility of compound at pH 7.4
Assay type: physicochemical
Details: buffer
MEASURED_ATTRIBUTE: solubility (µM)
Answers are plain numbers, in µM.

Dear colleague, I am looking for the recorded solubility of the following compound: Oc1nc2nonc2cc1Nc1c(F)c(F)c(F)c(F)c1F 18.6

* * *

I'd appreciate it if you could supply Activity values for the items below.
Assay: Induction of mitochondrial uncoupling activity in rat L6 cells assessed as increase in oxygen consumption rate at 0.37 to 200 uM measured after 90 mins by agilent Seahorse XF analyzer relative to BAM15
Assay type: functional
Conditions: dose 0.37-200 µM, 1.5 h
Numbers only, in %.

Oc1nc2nonc2cc1Nc1cccc(F)c1F	3
Oc1nc2nonc2cc1Nc1cc(F)cc(OC(F)(F)F)c1	6
Oc1nc2nonc2cc1Nc1ccc(OC(F)(F)F)c(F)c1	25

Would you mind giving Activity for every compound in the list below?
1. Oc1nc2nonc2cc1Nc1c(F)cc(F)cc1F
2. Oc1nc2nonc2cc1Nc1c(F)cccc1F
3. Oc1nc2nonc2cc1Nc1cc(F)c(F)c(F)c1
4. Oc1nc2nonc2cc1Nc1c(F)cccc1C(F)(F)F
5. Oc1nc2nonc2cc1Nc1ccc(F)cc1C(F)(F)F
6. Oc1nc2nonc2cc1Nc1ccc(C(F)(F)F)cc1F
7. Oc1nc2nonc2cc1Nc1cc(F)cc(C(F)(F)F)c1
8. Oc1nc2nonc2cc1Nc1cccc(F)c1C(F)(F)F

1. 14
2. 6
3. 21
4. 10
5. 29
6. 9
7. 11
8. 26

Would you mind giving Activity for every compound in the list below?
1. Oc1nc2nonc2cc1Nc1cccc(C(F)(F)F)c1
2. Oc1nc2nonc2cc1Nc1ccc(C(F)(F)F)c(C(F)(F)F)c1
3. Oc1nc2nonc2cc1Nc1ccc(C(F)(F)F)cc1
4. Oc1nc2nonc2cc1Nc1cc(F)c(C(F)(F)F)c(F)c1
5. Oc1nc2nonc2cc1Nc1cc(F)c(C(F)(F)F)cc1F
6. Oc1nc2nonc2cc1Nc1c(F)c(F)c(F)c(F)c1F
7. Oc1nc2nonc2cc1Nc1ccc(F)cc1OC(F)(F)F

[14, 10, 28, 33, 26, 48, 14]

Would you mind giving Activity for every compound in the list below?
1. Oc1nc2nonc2cc1Nc1cc(F)ccc1C(F)(F)F
2. Oc1nc2nonc2cc1Nc1cccc(OC(F)(F)F)c1
3. Oc1nc2nonc2cc1Nc1cc(F)cc(F)c1
4. O=S(=O)(c1cccc(Nc2cc3nonc3nc2O)c1)C(F)(F)F
5. Oc1nc2nonc2cc1Nc1ccc(OC(F)(F)F)cc1
6. Oc1nc2nonc2cc1Nc1c(F)c(F)c(C(F)(F)F)c(F)c1F

1. 53
2. 17
3. 24
4. 13
5. 14
6. 69

Would you mind giving Activity for every compound in the list below?
1. Oc1nc2nonc2cc1Nc1cc(C(F)(F)F)ccc1F
2. Oc1nc2nonc2cc1Nc1ccc(F)c(F)c1

54
17
